Experiment: Cytotoxicity assay (LDH release), HAEC
Format: cell-based
Details: human, HAEC cells, 0-100 μM
measurementName: IC50 at 18 h (µM)

> print(dat)
                                   molecule  measurementname  experimentalresult
1  CC(C)CCC[C@@H](C)[C@H]1CCC2C3C(CC[C@@]21C)[C@@]1(C)CC[C@H](O)C[C@@]1(O)[C@@H]3C=O (stereo partly shown)     IC50 at 18 h                18.2

====

Test: Cytotoxicity assay (LDH release), J774A.1
Type: cell-based, murine
Details: mouse, J774A.1 cells, 0-100 μM
measurementName: IC50 at 18 h (µM)

> print(dat)
                                   compound  experimentalresult
1  CC(C)CCC[C@@H](C)[C@H]1CCC2C3C(CC[C@@]21C)[C@@]1(C)CC[C@H](O)C[C@@]1(O)[C@@H]3C=O (stereo partly shown) [5a]                26.1

====

Assay: Cytotoxicity assay (LDH release), Jurkat
Type: cell-based
Settings: human
measurementName: IC50 at 18 h (µM)

compound	experimentalResult
CC(C)CCC[C@@H](C)[C@H]1CCC2C(CC=O)C([C@@]3(C)CC[C@H](O)CC3=O)CC[C@@]21C (stereo partly drawn) [4a, 3β-Hydroxy-5-oxo-5,6-secocholestan-6-al]	15.5

====

Experiment: Cytotoxicity assay (LDH release), VSMC
Format: cell-based
Conditions: human, vascular smooth muscle cells (VSMC), 0-100 μM

compound	unitOfMeasure	IC50 at 18 h
CC(C)CCC[C@@H](C)[C@H]1CCC2C(CC=O)C([C@@]3(C)CC[C@H](O)CC3=O)CC[C@@]21C (stereo partly drawn) [4a, 3β-Hydroxy-5-oxo-5,6-secocholestan-6-al]	µM	21.9

====

Assay: Cytotoxicity assay (LDH release), WI-L2
Format: cell-based
Conditions: human; WIL2 cells, 18 h, 0-100 μM; read-out: IC50 (cytotoxicity, LDH release)
Protocol: Cytotoxicity assays. WI-L2 human B-lymphocyte line, HAAE-1 human abdominal aortic endothelial line, MH—S murine alveolar macrophage line, and J774A.1 murine tissue macrophage line were obtained from the ATCC. Human aortic endothelial cells (HAEC) and human vascular smooth muscle cells (VSMS) were obtained from Cambrex Bio Science. […] Cytotoxicity was then determined by measuring lactate dehydrogenase (LDH) release from cells in culture. […]
measurementName: IC50 at 18 h

> print(dat)
                                   molecule  experimentalresult
1  CC(C)CCC[C@@H](C)[C@H]1CCC2C3C(CC[C@@]21C)[C@@]1(C)CC[C@H](O)C[C@@]1(O)[C@@H]3C=O (stereo partly shown) [5a]             17.7 µM

====

Assay: Cytotoxicity assay (LDH release), VSMC
Type: cell-based
Conditions: human, VSMC cells, 0-100 μM
measurementName: IC50 at 18 h

> print(dat)
                                   compound  measurementname  experimentalresult
1  CC(C)CCC[C@@H](C)[C@H]1CCC2C3C(CC[C@@]21C)[C@@]1(C)CC[C@H](O)C[C@@]1(O)[C@@H]3C=O (stereo partly shown)     IC50 at 18 h             29.8 µM
